Target: T1, 14-3-3σ (UniProt P31947 1-248)
T1 chain: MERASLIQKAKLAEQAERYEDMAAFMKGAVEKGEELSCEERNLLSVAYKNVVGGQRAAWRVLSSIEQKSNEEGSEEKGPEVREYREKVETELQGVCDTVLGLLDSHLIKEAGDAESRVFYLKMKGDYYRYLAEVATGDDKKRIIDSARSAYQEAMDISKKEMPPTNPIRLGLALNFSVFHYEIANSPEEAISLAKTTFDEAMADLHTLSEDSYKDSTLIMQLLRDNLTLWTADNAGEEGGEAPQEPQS
Assay: FP; 100 uM compound 32
No end group written: not given here.
Endpoint label: Kd (nM)

- Binder: "GQRDRSSSAPNVHIN (also: phosphoserine at S365, site in chain not given here) [15-mer B-RAF peptide]"
  Recorded measurement: 245
- Binder: "LQRIRSTSTPNVHMV (also: phosphoserine at S214, site in chain not given here) [15-mer A-RAF peptide]"
  Recorded measurement: 50
